Quick reference for CB2 Selectivity among some molecules
# measurement target: UniProtKB P34972
# Sequence (P34972 whole entry): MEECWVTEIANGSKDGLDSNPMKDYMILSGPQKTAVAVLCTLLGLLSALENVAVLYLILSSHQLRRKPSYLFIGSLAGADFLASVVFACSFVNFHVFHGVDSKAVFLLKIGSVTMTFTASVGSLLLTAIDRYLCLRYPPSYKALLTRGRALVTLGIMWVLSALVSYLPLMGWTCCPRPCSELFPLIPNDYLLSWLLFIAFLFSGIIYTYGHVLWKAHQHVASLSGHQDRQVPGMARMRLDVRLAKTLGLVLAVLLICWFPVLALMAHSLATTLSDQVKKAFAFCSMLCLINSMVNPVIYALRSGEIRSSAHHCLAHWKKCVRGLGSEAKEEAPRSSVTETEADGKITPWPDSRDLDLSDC
# assay: Radioligand binding assay, CB2 ([3H]-CP 55,940 competition)
# reported conditions: CB2 versus CB1 binding (ratio of CB1 IC50 to CB2 IC50)
# Procedure: A. Radioligand Binding Assay Plasma membranes prepared from HEK 293 EBNA cells transfected with human CB1 or CB2 cannabinoid receptors ([…] protein, receptor concentration; PerkinElmer) were used for the radioligand binding studies. […] Non-specific binding was determined using 10 uM of unlabeled CP 55,940. […] Binding was determined in duplicate for at least 4 separate experiments.
Respond with the number and no other words.

molecule	CB2 Selectivity
CCCNc1cnn(C2CC(C)(C)CC(C)(C)C2)c(=O)c1Cl [Compound 5]	189
CC1(C)CC(n2ncc(NCCN3CCOCC3)c(Cl)c2=O)CC(C)(C)C1 [Compound 11]	48
CC1(C)CC(n2ncc3c(cnn3CCN3CCOCC3)c2=O)CC(C)(C)C1 [Compound 36]	26
CCCn1ncc2c(=O)n(C3CC(C)(C)CC(C)(C)C3)ncc21 [Compound 34]	15
CCCNc1cnn(C2CC(C)(C)CC(C)(C)C2)c(=O)c1Br [Compound 13]	36

Find the recorded CB2 Selectivity belonging to CN(C)c1cnn(C2CC(C)(C)CC(C)(C)C2)c(=O)c1Cl [Compound 4] and report it. 60

So what does the record say about CB2 Selectivity for CC1(C)CC(n2ncc(NCCN3CCOCC3)c(Br)c2=O)CC(C)(C)C1 [Compound 15] ? 83

What value of CB2 Selectivity has been recorded for this entry: CN(C)CCn1ncc2c(=O)n(C3CC(C)(C)CC(C)(C)C3)ncc21 [Compound 38] 38

# input molecule: CN(C)CCN(C)c1cnn(C2CC(C)(C)CC(C)(C)C2)c(=O)c1Cl [Compound 31] ; wanted: its CB2 Selectivity 132

State the recorded CB2 Selectivity for this entry: CN(C)CCNc1cnn(C2CC(C)(C)CC(C)(C)C2)c(=O)c1Br [Compound 14] 177

Provenance of the data: patent US9062004B2
